Sourced from patent US9957271B2

Biological target: SIRT1 (Homo sapiens)
Assay: Trp mass spectrometry assay of SIRT1 activity
Assay type: biochemical
Conditions: Trp peptide substrate; concentration giving 150% activation of SIRT1

{"columns": ["COMPOUND", "Trp EC1.5"],
 "data": [
  ["O=C(Nc1cccc(N2CCOCC2)n1)c1cnc2ccc(N3CCC(F)(F)C3)nn12 [Compound 489]", "A (EC1.5<1 μM)"],
  ["Cc1nc2ccc(-c3ccccc3C(F)(F)F)nn2c1C(=O)Nc1ccncc1 [Compound 499]", "A (EC1.5<1 μM)"],
  ["O=C(Nc1ncn2ccc(-c3ccccc3C(F)(F)F)nc12)c1ccncn1 [Compound 484]", "C (EC1.5>25 μM)"],
  ["O=C(Nc1cnn2ccc(-c3ccccc3OC(F)(F)F)nc12)c1ccncc1 [Compound 583]", "C (EC1.5>25 μM)"],
  ["O=C(Nc1cnc2ccc(-c3ccccc3C(F)(F)F)nn12)c1cccc(O)n1 [Compound 467]", "B (EC1.5 1-25 μM)"],
  ["Cc1cc2ncc(NC(=O)c3cccc(OCC(O)CO)n3)n2nc1-c1ccccc1C(F)(F)F (stereo not shown) [Compound 449]", "A (EC1.5<1 μM)"],
  ["Cc1cc(NC(=O)c2cnc3ccc(-c4ccccc4C(F)(F)F)nn23)cc(OC[C@@H](O)CO)n1 [Compound 558]", "A (EC1.5<1 μM)"],
  ["Cc1nc(C(=O)Nc2cnn3ccc(-c4ccccc4C(F)(F)F)nc23)cs1 [Compound 527]", "B (EC1.5 1-25 μM)"],
  ["O=C(Nc1cccc(CN2CCOCC2)n1)c1cnn2ccc(-c3ccccc3OC(F)(F)F)nc12 [Compound 535]", "A (EC1.5<1 μM)"],
  ["Cc1nc(C(=O)Nc2cnc3cc(C)c(-c4ccccc4C(F)(F)F)nn23)c(C)s1 [Compound 445]", "B (EC1.5 1-25 μM)"],
  ["O=C(Nc1cnn2ccc(-c3ccccc3OC(F)(F)F)nc12)c1cnccn1 [Compound 584]", "C (EC1.5>25 μM)"],
  ["Cc1nc2c(C)cc(-c3ccccc3C(F)(F)F)nn2c1C(=O)Nc1cccnn1 [Compound 428]", "A (EC1.5<1 μM)"],
  ["Cc1nc2c(C)cc(-c3ccccc3C(F)(F)F)nn2c1C(=O)Nc1ccncn1 [Compound 460]", "A (EC1.5<1 μM)"],
  ["Cc1cc(C)nc(NC(=O)c2cnc3ccc(-c4cccc(OC[C@H](O)CO)c4)nn23)c1 [Compound 591]", "A (EC1.5<1 μM)"],
  ["CN(C)[C@@H]1CCN(c2ccc3ncc(C(=O)Nc4cccc(N5CCOCC5)n4)n3n2)C1 [Compound 511]", "B (EC1.5 1-25 μM)"],
  ["Cc1csc(NC(=O)c2cnn3ccc(-c4ccccc4C(F)(F)F)nc23)n1 [Compound 508]", "A (EC1.5<1 μM)"]
]}

###

Molecular target: SIRT1 (Homo sapiens, UniProt Q96EB6)
Sequence (Q96EB6 whole entry): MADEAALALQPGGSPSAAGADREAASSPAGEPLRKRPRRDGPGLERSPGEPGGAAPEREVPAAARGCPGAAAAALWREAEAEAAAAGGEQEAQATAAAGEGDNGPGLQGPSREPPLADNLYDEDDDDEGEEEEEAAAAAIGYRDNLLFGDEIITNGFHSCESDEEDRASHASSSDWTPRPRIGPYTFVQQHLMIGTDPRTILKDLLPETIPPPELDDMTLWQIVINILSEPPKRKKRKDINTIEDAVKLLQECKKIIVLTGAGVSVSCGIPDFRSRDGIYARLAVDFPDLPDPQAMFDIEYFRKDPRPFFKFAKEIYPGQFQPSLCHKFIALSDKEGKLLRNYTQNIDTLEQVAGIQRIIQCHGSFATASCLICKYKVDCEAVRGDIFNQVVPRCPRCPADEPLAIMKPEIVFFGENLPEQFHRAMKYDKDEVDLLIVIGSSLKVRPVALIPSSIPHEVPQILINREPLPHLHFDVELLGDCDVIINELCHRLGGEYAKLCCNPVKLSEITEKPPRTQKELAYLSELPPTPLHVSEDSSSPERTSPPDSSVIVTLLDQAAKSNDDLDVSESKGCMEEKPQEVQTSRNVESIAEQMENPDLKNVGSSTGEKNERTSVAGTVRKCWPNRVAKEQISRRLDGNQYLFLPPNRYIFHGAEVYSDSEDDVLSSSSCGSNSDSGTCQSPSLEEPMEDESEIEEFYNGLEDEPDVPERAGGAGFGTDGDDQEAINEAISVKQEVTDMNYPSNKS
Assay: Trp mass spectrometry assay of SIRT1 activity
Type: biochemical
Settings: Trp assay; percent maximum fold activation; read-out: Trp % Fold Act

{"columns": ["COMPOUND", "Emax"],
 "data": [
  ["CO[C@H]1CCN(c2ccc3ncc(C(=O)Nc4cccnc4)n3n2)C1", "< 350%"],
  ["O=C(Nc1cccnn1)c1cnc2ccc(N3CCC[C@H](F)C3)nn12", "≥ 350%"],
  ["O=C(Nc1cnn2ccc(-c3ccccc3C(F)(F)F)nc12)c1cc(O)ncn1", "< 350%"],
  ["Cc1ccc(NC(=O)c2cnn3ccc(-c4ccccc4C(F)(F)F)nc23)nc1", "≥ 350%"],
  ["O=C(Nc1cccnc1)c1cnc2ccc(N3CCC(F)(F)CC3)nn12", "< 350%"],
  ["COc1ccc(NC(=O)c2c(C)nc3ccc(-c4ccccc4C(F)(F)F)nn23)nn1", "< 350%"],
  ["O=C(Nc1ccncc1F)c1cnc2ccc(N3CC[C@H](F)C3)nn12", "< 350%"],
  ["Cc1cncc(NC(=O)c2c(C)nn3ccc(-c4ccccc4C(F)(F)F)nc23)n1", "≥ 350%"],
  ["Cc1cncc(NC(=O)c2cnn3ccc(-c4ccccc4OC(F)(F)F)nc23)c1", "≥ 350%"],
  ["O=C(Nc1cccc(CN2CCOCC2)n1)c1cnn2ccc(-c3ccccc3C(F)(F)F)nc12", "≥ 350%"],
  ["O=C(Nc1ccncn1)c1cnc2ccc(N3CCOCC3)nn12", "< 350%"],
  ["Cc1nc2ccc(N3CC[C@H](N(C)C)C3)nn2c1C(=O)Nc1cnccn1", "< 350%"],
  ["O=C(Nc1ccc(C(F)(F)F)nc1)c1cnc2ccc(N3CC[C@H](F)C3)nn12", "< 350%"],
  ["O=C(Nc1ccc(F)cn1)c1cnc2ccc(N3CCCC3)nn12", "< 350%"],
  ["Cc1nc2ccc(-c3ccccc3OC[C@H](O)CO)nn2c1C(=O)Nc1ccccn1", "≥ 350%"],
  ["Cc1scnc1C(=O)Nc1cnn2ccc(-c3ccccc3C(F)(F)F)nc12", "< 350%"],
  ["Cc1cccc(NC(=O)c2cnc3ccc(-c4ccccc4OCC(O)CO)nn23)n1 (stereo not drawn)", "≥ 350%"],
  ["O=C(Nc1cccnc1)c1cnc2ccc(N3CCC[C@H](F)C3)nn12", "≥ 350%"]
]}

###

Molecular target: UniProtKB Q96EB6
Assay: Trp mass spectrometry assay of SIRT1 activity
Assay type: biochemical
Settings: Trp assay; percent maximum fold activation; read-out: Trp % Fold Act
Recorded Emax, one value per entry.
ENDPOINT_NAME: Emax

{"columns": ["MOLECULE", "ENDPOINT_NAME", "RESULT"],
 "data": [
  ["O=C(Nc1cnn2ccc(-c3ccccc3C(F)(F)F)nc12)c1cscn1 [Compound 802]", "Emax", "< 350%"],
  ["O=C(Nc1cnc2ccc(-c3ccccc3F)nn12)c1cccc(OCC(O)CO)n1 (centres unmarked) [Compound 305]", "Emax", "< 350%"],
  ["Cc1cnc(C(=O)Nc2cnn3ccc(-c4ccccc4C(F)(F)F)nc23)cn1 [Compound 800]", "Emax", "< 350%"],
  ["Cc1nc2ccc(N3CC[C@H](F)C3)nn2c1C(=O)Nc1ccncn1 [Compound 855]", "Emax", "≥ 350%"],
  ["Cc1nc(C(=O)Nc2cnc3ccc(-c4ccccc4Cl)nn23)c(C)s1 [Compound 293]", "Emax", "< 350%"]
]}

###

Recorded Emax, one value per entry.
Biological target: SIRT1 (Homo sapiens)
Experiment: TAMRA based mass spectrometry assay of SIRT1 activity
Type: biochemical
Conditions: percent maximum fold activation of SIRT1; TAMRA peptide substrate; read-out: TAMRA % Fold Act

{"columns": ["COMPOUND", "EXPERIMENTAL_SYSTEM", "Emax"],
 "data": [
  ["CS(=O)(=O)c1ccccc1-c1ccc2ncc(C(=O)Nc3ccccn3)n2n1", "SIRT1 (Homo sapiens)", "< 350%"],
  ["O=C(Nc1ccccn1)c1cnc2ccc(-c3cccc(N4CCOCC4)c3)nn12", "SIRT1 (Homo sapiens)", "< 350%"],
  ["O=C(Nc1cccc(CN2CCOCC2)n1)c1cnc2ccc(-c3cccc(C(F)(F)F)c3)nn12", "SIRT1 (Homo sapiens)", "≥ 350%"],
  ["O=C(Nc1ncc(F)cc1F)c1cnc2ccc(-c3ccccc3C(F)(F)F)nn12", "SIRT1 (Homo sapiens)", "< 350%"],
  ["Cc1cc(C)nc(NC(=O)c2cnc3ccc(-c4ccccc4C(F)(F)F)nn23)c1", "SIRT1 (Homo sapiens)", "≥ 350%"],
  ["O=C(Nc1cc(OCC(O)CO)ccn1)c1cnc2ccc(-c3ccccc3C(F)(F)F)nn12 (stereo not drawn)", "SIRT1 (Homo sapiens)", "≥ 350%"],
  ["O=C(Nc1cnccc1N1CCOCC1)c1cnc2ccc(-c3ccccc3C(F)(F)F)nn12", "SIRT1 (Homo sapiens)", "< 350%"],
  ["O=C(Nc1nc(CN2CCOCC2)cs1)c1cnc2ccc(-c3cccc(F)c3)nn12", "SIRT1 (Homo sapiens)", "< 350%"],
  ["O=C(Nc1ccccn1)c1cnc2ccc(-c3cccc(Cl)c3F)nn12", "SIRT1 (Homo sapiens)", "< 350%"],
  ["CS(=O)(=O)c1cccc(-c2ccc3ncc(C(=O)Nc4nccs4)n3n2)c1", "SIRT1 (Homo sapiens)", "< 350%"],
  ["O=C(Nc1cnc2ccc(-c3ccccc3C(F)(F)F)nn12)c1ccnc(N2CCCC2)c1", "SIRT1 (Homo sapiens)", "≥ 350%"],
  ["O=C(Nc1ccncc1)c1cnc2ccc(-c3ccccc3Cl)nn12", "SIRT1 (Homo sapiens)", "< 350%"],
  ["Cc1nc2ccc(-c3ccccc3C(F)(F)F)nn2c1C(=O)Nc1cccc(N2CCC2)n1", "SIRT1 (Homo sapiens)", "≥ 350%"],
  ["O=C(NCc1cccnc1)c1cnc2ccc(-c3cccc(C(F)(F)F)c3)nn12", "SIRT1 (Homo sapiens)", "< 350%"],
  ["O=C(Nc1cccc(CN2CCOCC2)n1)c1cnc2ccc(-c3ccc(F)c(F)c3F)nn12", "SIRT1 (Homo sapiens)", "< 350%"]
]}
